Each recorded value in this set is attributed to PubChem BioAssay AID248.

- Tested on: L1210 leukemia ip in BDF1 mice, survival T/C
- methodDescription: NCI In Vivo Anticancer Drug Screen. Data for tumor model L1210 Leukemia (intraperitoneal) in B6D2F1 (BDF1) mice
- measurementParameters: endpoint: mean survival time; dose: 400.0 mg/kg/injection; schedule: Q01DX001 (ip); vehicle: saline; higher = longer survival
Inconclusive results and toxic doses are left out.
assayReadout: T/C

CN(C)/C(N)=N/S(=O)(=O)c1ccc(C#N)cc1 ... 94 % of control
CN(Cc1ccccc1)c1ccccc1 ... 97 % of control
CN(C)P1N(C)CCN1C ... 87 % of control
O=C(CCCC(=O)N/N=C/c1ccccc1[N+](=O)[O-])N/N=C\c1ccccc1[N+](=O)[O-] ... 101 % of control
CN(C)[C@@H]1C(=O)C(C(=O)NCNc2nc3n[nH]nc3c(=O)[nH]2)=C(O)[C@@]2(O)C(=O)C3=C(O)c4c(O)cccc4[C@@](C)(O)[C@H]3C[C@@H]12 ... 105 % of control
O=[N+]([O-])c1ccc(Cl)cc1/C=N/N1CCN(/N=C/c2cc(Cl)ccc2[N+](=O)[O-])CC1 ... 93 % of control

Look up T/C for the entries below, preserving their order.
1. CCOC(=O)NC(C)NC(=O)OCC
2. CCN(CC)c1ccc(N=C2C=C(C(=O)Nc3ccccc3OC)C(=O)c3ccccc32)c(C)c1

a:
["97 % of control", "96 % of control"]

Look up T/C for the entries below, preserving their order.
1. C=CCc1ccc(OC(=O)Nc2ccc(S(=O)(=O)NC3CCCCC3)cc2)c(OC)c1
2. CC(=O)NC1C(=O)NS(=O)(=O)C1c1ccccc1 (stereo not given)

a:
1: 96 % of control; 2: 92 % of control

---

- System: L1210 leukemia ip in BDF1 mice, survival T/C
- methodDescription: NCI In Vivo Anticancer Drug Screen. Data for tumor model L1210 Leukemia (intraperitoneal) in B6D2F1 (BDF1) mice
- measurementParameters: endpoint: mean survival time; dose: 100.0 mg/kg/injection; schedule: Q04DX003 (ip); vehicle: saline with Tween-80; higher = longer survival
Toxic doses and inconclusive results are not listed.
For each of the compounds below, state its T/C.

Below, each entry is followed by its recorded T/C result.
CCOC(=O)c1cnn2c(=O)[nH]cnc12 ... 98 % of control
CC1(C)OC2COC3(COC(C)(C)O3)C(OS(C)(=O)=O)C2O1 (stereo not given) ... 92 % of control
Clc1cccc2c(Cl)nccc12 ... 100 % of control
BrCC1=CC(c2ccccc2)(c2ccccc2)c2ccccc21 ... 89 % of control

Please examine the following record next.
q: Lookup: T/C / L1210 leukemia ip in BDF1 mice, survival T/C / O=C(O)CSC(C(=O)O)c1ccccc1 (stereo not given)
a: 94 % of control

---

- Tested on: L1210 leukemia ip in BDF1 mice, survival T/C
- methodDescription: NCI In Vivo Anticancer Drug Screen. Data for tumor model L1210 Leukemia (intraperitoneal) in B6D2F1 (BDF1) mice
- measurementParameters: endpoint: mean survival time; dose: 200.0 mg/kg/injection; schedule: Q01DX009 (ip); vehicle: saline; higher = longer survival
Inconclusive results and toxic doses are left out.
assayReadout: T/C

Below, each entry is followed by its recorded T/C result.
O=C(O)c1ccc(C(=O)c2ccccc2C(=O)O)cc1 ... 106 % of control
COCCOCC1CO1 (stereo not given) ... 105 % of control
C(=NC12CC3CC(CC(C3)C1)C2)c1ccccc1 ... 100 % of control
C=C[CH2][Sn]([Br])([Br])[Br] ... 86 % of control

q: Lookup: T/C / L1210 leukemia ip in BDF1 mice, survival T/C / NC(=O)NC(=O)c1ccccc1
a: 101 % of control

---

- Tested on: L1210 leukemia ip in BDF1 mice, survival T/C
- methodDescription: NCI In Vivo Anticancer Drug Screen. Data for tumor model L1210 Leukemia (intraperitoneal) in B6D2F1 (BDF1) mice
- measurementParameters: endpoint: mean survival time; dose: 400.0 mg/kg/injection; schedule: Q04DX002 (ip); vehicle: Klucel (hydroxypropylcellulose) (HPC); higher = longer survival
Toxic doses and inconclusive results are not listed.
For each of the compounds below, state its T/C.

Below, each entry is followed by its recorded T/C result.
O=C1C=CC(=O)N1C(c1ccccc1)c1ccccc1 ... 91 % of control
COc1ccc2c(CSc3nc(N)nc4nc[nH]c34)cc(=O)oc2c1 ... 115 % of control
O=C(COc1cc(Cl)c(Cl)cc1Cl)Oc1ccc(Cl)cc1Cl ... 98 % of control
CCCCCCCCCCCCCCCCCCNC(=O)Nc1ccc([N+](=O)[O-])cc1Br ... 90 % of control
CC(=O)c1ccc2oc3ccccc3c2c1 ... 93 % of control
Cc1cccc(OC(=O)Nc2ccccc2C)c1 ... 100 % of control
Cc1c2c(nn1-c1ccccn1)C(=O)C=C(Nc1ccccc1)C2=O ... 90 % of control
CC(C)(C)c1ccc(Oc2ccc([N+](=O)[O-])cc2[N+](=O)[O-])c(Br)c1 ... 111 % of control
CCOc1ccc(CCOC(C)=O)cc1 ... 101 % of control
O=C1COc2ccc(F)cc2N1 ... 109 % of control

Look up T/C for the entries below, preserving their order.
1. O=C1OCC/C1=C\NCCCN/C=C1\CCOC1=O
2. COC1OC(CBr)C(OS(C)(=O)=O)C(OC(=O)c2ccccc2)C1OC(=O)c1ccccc1 (stereo unspecified)
3. CC(C)(C)NC(=O)NCc1ccccc1Cl
4. COc1ccc(OCCCO)cc1
5. CCCNC(=O)Oc1cccc(C)c1
6. c1ccc(C(N2CCN(c3ccccc3)CC2)N2CCN(c3ccccc3)CC2)cc1

a:
1: 94 % of control; 2: 94 % of control; 3: 100 % of control; 4: 97 % of control; 5: 110 % of control; 6: 94 % of control

---

- Test system: L1210 leukemia ip in BDF1 mice, survival T/C
- methodDescription: NCI In Vivo Anticancer Drug Screen. Data for tumor model L1210 Leukemia (intraperitoneal) in B6D2F1 (BDF1) mice
- measurementParameters: endpoint: mean survival time; dose: 400.0 mg/kg/injection; schedule: Q04DX003 (ip); vehicle: saline with Tween-80; higher = longer survival
Toxic doses and inconclusive results are not listed.
For each of the compounds below, state its T/C.

Look up T/C for the entries below, preserving their order.
1. CCCCCCCCOc1ccccn1
2. Clc1ccc(Cl)c(N=NNc2cc(Cl)ccc2Cl)c1
3. Cc1ccc(S(=O)(=O)N=P(c2ccccc2)(c2ccccc2)c2ccccc2)cc1

a:
1: 103 % of control; 2: 96 % of control; 3: 91 % of control

Look up T/C for the entries below, preserving their order.
1. CC(C)(C)C(=O)CC(=O)C(C)(C)C.CC(C)(C)C(=O)CC(=O)C(C)(C)C.CC(C)(C)C(=O)CC(=O)C(C)(C)C.CC(C)(C)C(=O)CC(=O)C(C)(C)C.[Er]
2. CCOC(=O)/C(=N\O)C(C)(C)c1ccnc2ccccc12
3. O=[N+]([O-])c1cc[n+]([O-])c2sccc12
4. NS(=O)(=O)c1ccc(NC(=S)NC(=O)c2cccc([N+](=O)[O-])c2)cc1
5. Cc1ccc(Cl)cc1NS(=O)(=O)c1ccc(Br)cc1
6. NC(=O)NC1CCCC1
7. CC12CC(C(=O)c3ccccc3)C(C)(C1=O)C(c1ccccc1)=C2c1ccccc1 (configuration not stated)

a:
1. 88 % of control
2. 95 % of control
3. 108 % of control
4. 89 % of control
5. 94 % of control
6. 93 % of control
7. 89 % of control

Look up T/C for the entries below, preserving their order.
1. CCCCCCCC(=O)Nc1ccc(C)cc1C
2. COc1ccc(C2C3C=CC(C3)C2C(=O)O)cc1 (configuration not stated)

a:
["94 % of control", "91 % of control"]

---

- Test system: L1210 leukemia ip in BDF1 mice, survival T/C
- methodDescription: NCI In Vivo Anticancer Drug Screen. Data for tumor model L1210 Leukemia (intraperitoneal) in B6D2F1 (BDF1) mice
- measurementParameters: endpoint: mean survival time; dose: 400.0 mg/kg/injection; schedule: Q01DX009 (ip); vehicle: saline with Tween-80; higher = longer survival
Inconclusive results and toxic doses are left out.
For each of the molecules below, state its T/C.

CS(=O)(=O)C(=Cc1ccccc1Cl)S(C)(=O)=O ... 101 % of control
FC1(F)SC2c3cccc4cccc(c34)C2C1(F)F (configuration not stated) ... 96 % of control

Look up T/C for the entries below, preserving their order.
1. CC(Cc1ccccc1)NC1=NCCO1 (configuration not stated)
2. COc1cc2ccc3c4cc5c(cc4cnc3c2cc1OC)OCO5
3. Cc1nnc(N)s1
4. CC(C)CC1NC(=O)C(Cc2ccc(OCc3ccccc3)cc2)NC1=O (configuration not stated)
5. O=C1OCC/C1=C1\CCCO1

a:
89 % of control
106 % of control
93 % of control
100 % of control
96 % of control
